- SYSTEM: 5-HT2A receptor (Homo sapiens)
- Construct: full length clones of 5-HT2A, 5-HT2B and 5-HT2C receptor were prepared from CHO-K1 cells
- Sequence (P28223 whole entry): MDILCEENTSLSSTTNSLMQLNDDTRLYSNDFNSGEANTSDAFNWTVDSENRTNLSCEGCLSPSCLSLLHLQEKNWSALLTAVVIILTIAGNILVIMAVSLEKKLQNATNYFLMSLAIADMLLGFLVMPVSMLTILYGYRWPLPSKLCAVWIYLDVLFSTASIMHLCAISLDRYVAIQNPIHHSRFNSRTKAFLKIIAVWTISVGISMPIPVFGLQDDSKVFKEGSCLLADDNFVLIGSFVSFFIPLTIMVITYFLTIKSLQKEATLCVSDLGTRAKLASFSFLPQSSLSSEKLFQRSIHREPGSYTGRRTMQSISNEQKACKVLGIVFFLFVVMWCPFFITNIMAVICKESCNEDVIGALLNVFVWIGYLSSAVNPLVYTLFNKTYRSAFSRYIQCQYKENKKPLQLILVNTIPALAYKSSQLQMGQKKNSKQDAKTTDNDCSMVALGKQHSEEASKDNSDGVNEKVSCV
- EXPERIMENTAL_DETAILS: Displacement of radioligand binding, 5-HT2A
- CONDITION: [^3H]-ketanserin; human recombinant CHO-K1 cells; Cheng-Prusoff
MEASURED_QUANTITY: pKi
Hey, just a heads up that pKi is the negative log base 10 of the concentration in molar.

Query block: Output measured pKi for this item: Cn1c(=O)c2c(ncn2CCN2CCN(c3ccccc3Cl)CC2)n(C)c1=O [KMUP-1]
Result block: 7.01

====

# Lookup of reported Lymphocyte keyed by entry
- Tested on: BALF cells
- EXPERIMENTAL_DETAILS: Ovalbumine model, bronchoalveolar lavage cell counts
- Assay type: in vivo, BALB/c mice
- CONDITION: inhalation 5 mM; OVA 2.4 ± 0.3

Query block: Given the compound Cl.Cn1c(=O)c2c(ncn2CCN2CCN(c3ccc([N+](=O)[O-])cc3)CC2)n(C)c1=O [KMUP-3 HCl] , write its reported Lymphocyte.
Result block: 1.3 ± 0.6 × 10^4 cell/ml

====

Form field: MMP-9 (one value per entry).
- Tested on: MMP-9
- EXPERIMENTAL_DETAILS: Ovalbumine model, MMP-9 expression, zymography and immunostaining
- Format: in vivo, BALB/c mice
- CONDITION: inhalation 5 mM; non-treatment allergic animal 100 %
Give a bare numeral; the unit % is implied.

Reference set, count: 2
>  <MOLECULE>
Cl.Cn1c(=O)c2c(ncn2CCN2CCN(c3ccccc3Cl)CC2)n(C)c1=O [KMUP-1 HCl]

>  <SYSTEM>
MMP-9

>  <MMP-9 (%)>
42

$$$$
>  <MOLECULE>
COc1ccccc1N1CCN(CCn2cnc3c2c(=O)n(C)c(=O)n3C)CC1.Cl [KMUP-2 HCl]

>  <SYSTEM>
MMP-9

>  <MMP-9 (%)>
40

$$$$

Query block: Determine its reported MMP-9: Cl.Cn1c(=O)c2c(ncn2CCN2CCN(c3ccc([N+](=O)[O-])cc3)CC2)n(C)c1=O [KMUP-3 HCl]
Result block: 44

Query block: Report MMP-9, nothing else, for this molecule: Cl.Cn1c(=O)c2c(ncn2CCN2CCN(c3ccccc3[N+](=O)[O-])CC2)n(C)c1=O [KMUP-4 HCl]
Result block: 37

====

- Test system: BALF cells
- EXPERIMENTAL_DETAILS: Ovalbumine model, bronchoalveolar lavage cell counts
- Assay type: in vivo, BALB/c mice
- CONDITION: inhalation 5 mM; OVA 37.2 ± 2.8
(Table 5): recorded values

>  <MOLECULE>
Cl.Cn1c(=O)c2c(ncn2CCN2CCN(c3ccc([N+](=O)[O-])cc3)CC2)n(C)c1=O [KMUP-3 HCl]

>  <SYSTEM>
BALF cells

>  <(Table 5)>
24 ± 3.5 × 10^4 cell/ml

$$$$
>  <MOLECULE>
Cl.Cn1c(=O)c2c(ncn2CCN2CCN(c3ccccc3[N+](=O)[O-])CC2)n(C)c1=O [KMUP-4 HCl]

>  <SYSTEM>
BALF cells

>  <(Table 5)>
21 ± 6.7 × 10^4 cell/ml

$$$$
>  <MOLECULE>
COc1ccccc1N1CCN(CCn2cnc3c2c(=O)n(C)c(=O)n3C)CC1.Cl [KMUP-2 HCl]

>  <SYSTEM>
BALF cells

>  <(Table 5)>
25 ± 2.2 × 10^4 cell/ml

$$$$

Proceed to the following item.
Query block: Indicate its recorded (Table 5); the molecule in question is Cl.Cn1c(=O)c2c(ncn2CCN2CCN(c3ccccc3Cl)CC2)n(C)c1=O [KMUP-1 HCl]
Result block: 23.7 ± 2.8 × 10^4 cell/ml
